For each entry below, report its Percentage Inhibition of Specific Binding, I2 Receptor value.
- Test system: Imidazoline I2 (Central) Receptor
- TEST DETAILS: Imidazoline I2 (central) receptor radioligand binding
- Design: species or system Wistar rat
- CONDITION CONTEXT: 10 μM; 2 nM [3H] Idazoxan
- Procedure: (a) Adrenergic α2A Receptor: • Reference: S. Uhlen et al. J. Pharmacol. Exp. Ther., 271:1558-1565 (1994) • Source: Human recombinant insect Sf9 cells • Ligand: 1 nM [^3H] […] J. Pharmacol., 99:803-809, (1990) • Source: Wistar rat cerebral cortex • Ligand: 2 nM [3H]
Value expressed in %; do not type the unit.

The recorded Percentage Inhibition of Specific Binding, I2 Receptor for COc1cc2c(cc1OC)[C@H]1C[C@H](O)[C@@H](CC(C)C)CN1CC2 (single isomer, unassigned) [Isomer A, 3,11b-cis-dihydrotetrabenazine] is 74

The recorded Percentage Inhibition of Specific Binding, I2 Receptor for COc1cc2c(cc1OC)[C@H]1C[C@@H](O)[C@@H](CC(C)C)CN1CC2 (single isomer, unassigned) [Isomer C, 3,11b-cis-dihydrotetrabenazine] is 0

The recorded Percentage Inhibition of Specific Binding, I2 Receptor for COc1cc2c(cc1OC)[C@H]1C[C@@H](O)[C@@H](CC(C)C)CN1CC2 (single isomer, unassigned) [Isomer D, 3,11b-cis-dihydrotetrabenazine] is 55

The recorded Percentage Inhibition of Specific Binding, I2 Receptor for COc1cc2c(cc1OC)[C@H]1C[C@H](O)[C@@H](CC(C)C)CN1CC2 (single isomer, unassigned) [Isomer B, 3,11b-cis-dihydrotetrabenazine] is 8
